Origin of the recorded values: ChEMBL document CHEMBL4028826

molecular target: CREB-binding protein (Homo sapiens, UniProt Q92793); assay: Binding affinity to CBP (unknown origin) assessed as change in melting temperature at 1 mM by differential scanning fluorimetric method
Sequence (Q92793 2-2442 limits assumed): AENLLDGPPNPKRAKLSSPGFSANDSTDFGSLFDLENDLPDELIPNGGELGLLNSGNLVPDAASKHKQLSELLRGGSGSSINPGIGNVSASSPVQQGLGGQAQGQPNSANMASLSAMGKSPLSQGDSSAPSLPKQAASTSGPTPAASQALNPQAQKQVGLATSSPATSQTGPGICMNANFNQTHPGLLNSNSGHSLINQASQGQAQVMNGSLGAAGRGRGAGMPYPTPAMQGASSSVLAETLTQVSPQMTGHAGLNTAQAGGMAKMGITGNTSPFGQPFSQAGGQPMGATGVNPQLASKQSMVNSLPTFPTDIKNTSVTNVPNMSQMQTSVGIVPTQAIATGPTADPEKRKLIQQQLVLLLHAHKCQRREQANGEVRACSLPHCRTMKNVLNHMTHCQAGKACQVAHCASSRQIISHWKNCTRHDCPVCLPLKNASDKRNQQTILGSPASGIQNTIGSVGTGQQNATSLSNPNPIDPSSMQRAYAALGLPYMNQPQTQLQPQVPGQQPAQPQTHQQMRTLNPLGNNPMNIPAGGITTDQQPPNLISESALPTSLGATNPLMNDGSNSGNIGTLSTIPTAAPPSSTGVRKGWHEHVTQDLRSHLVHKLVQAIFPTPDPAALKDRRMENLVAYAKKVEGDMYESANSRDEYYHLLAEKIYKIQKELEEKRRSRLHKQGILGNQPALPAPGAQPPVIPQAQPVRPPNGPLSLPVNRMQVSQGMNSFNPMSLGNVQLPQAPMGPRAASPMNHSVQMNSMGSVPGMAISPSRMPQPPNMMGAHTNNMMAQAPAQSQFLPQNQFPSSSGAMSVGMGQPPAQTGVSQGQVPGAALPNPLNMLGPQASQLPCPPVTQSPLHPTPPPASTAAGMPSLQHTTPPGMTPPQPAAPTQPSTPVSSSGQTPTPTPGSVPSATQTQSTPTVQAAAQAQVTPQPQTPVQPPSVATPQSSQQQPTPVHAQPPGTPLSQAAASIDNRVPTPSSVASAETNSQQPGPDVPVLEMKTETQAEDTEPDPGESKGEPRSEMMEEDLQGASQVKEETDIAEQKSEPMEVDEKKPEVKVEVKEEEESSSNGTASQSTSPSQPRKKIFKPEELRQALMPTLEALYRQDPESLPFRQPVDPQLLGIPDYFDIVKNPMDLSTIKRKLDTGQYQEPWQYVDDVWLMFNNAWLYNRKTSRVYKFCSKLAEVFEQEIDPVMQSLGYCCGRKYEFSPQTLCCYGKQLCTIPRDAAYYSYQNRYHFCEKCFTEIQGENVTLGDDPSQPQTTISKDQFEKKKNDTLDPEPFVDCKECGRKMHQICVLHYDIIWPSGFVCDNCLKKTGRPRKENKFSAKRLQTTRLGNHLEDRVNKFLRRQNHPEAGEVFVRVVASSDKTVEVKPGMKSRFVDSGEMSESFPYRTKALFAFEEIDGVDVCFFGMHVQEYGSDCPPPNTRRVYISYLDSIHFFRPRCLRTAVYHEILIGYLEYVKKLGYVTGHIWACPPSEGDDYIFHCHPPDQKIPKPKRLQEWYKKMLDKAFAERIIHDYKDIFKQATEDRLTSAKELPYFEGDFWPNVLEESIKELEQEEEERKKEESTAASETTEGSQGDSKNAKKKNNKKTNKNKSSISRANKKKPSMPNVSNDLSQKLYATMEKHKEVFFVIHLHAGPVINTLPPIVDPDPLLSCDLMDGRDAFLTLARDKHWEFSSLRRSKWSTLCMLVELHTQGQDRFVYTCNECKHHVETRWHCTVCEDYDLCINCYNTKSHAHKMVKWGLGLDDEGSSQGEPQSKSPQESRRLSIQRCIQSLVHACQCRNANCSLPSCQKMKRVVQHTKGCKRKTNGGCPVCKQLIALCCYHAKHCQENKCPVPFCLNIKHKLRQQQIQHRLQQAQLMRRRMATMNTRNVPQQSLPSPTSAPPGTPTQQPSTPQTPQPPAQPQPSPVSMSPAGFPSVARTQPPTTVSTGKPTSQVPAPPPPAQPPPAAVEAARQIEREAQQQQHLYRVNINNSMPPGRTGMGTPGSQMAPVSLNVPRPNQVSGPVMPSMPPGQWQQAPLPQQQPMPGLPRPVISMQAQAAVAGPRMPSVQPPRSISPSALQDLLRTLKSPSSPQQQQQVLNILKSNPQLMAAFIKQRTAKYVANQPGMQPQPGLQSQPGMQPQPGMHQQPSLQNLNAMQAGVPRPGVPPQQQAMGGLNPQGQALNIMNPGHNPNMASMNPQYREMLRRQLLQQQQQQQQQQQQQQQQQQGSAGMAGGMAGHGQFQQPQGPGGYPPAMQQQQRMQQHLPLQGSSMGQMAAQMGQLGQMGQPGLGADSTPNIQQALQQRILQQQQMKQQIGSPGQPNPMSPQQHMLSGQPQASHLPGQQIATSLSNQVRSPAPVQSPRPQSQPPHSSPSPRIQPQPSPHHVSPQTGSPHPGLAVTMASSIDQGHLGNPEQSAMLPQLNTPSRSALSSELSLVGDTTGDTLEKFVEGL
# note: exactly 2 °C is not below, so it is No; use Yes for ΔTm strictly under it

{"cpd_smiles": "CNC(=O)c1cc(Br)c[nH]1", "label": "No"}
{"cpd_smiles": "COc1ccc(-c2c[nH]nc2N)cc1OC", "label": "Yes"}
{"cpd_smiles": "COC(=O)c1ccc2[nH]c(=O)oc2c1", "label": "No"}
{"cpd_smiles": "COc1cc(C(C)=O)ccc1N", "label": "No"}
{"cpd_smiles": "CC(=O)c1cn(C)c2ccccc12", "label": "No"}

* * *

target: CREB-binding protein (Homo sapiens, UniProt Q92793); assay: Residual binding of human CBP expressed in Escherichia coli to histone H4 tetraacetylated peptide at 0.5 mM by Alphascreen assay relative to control
Listing: residual activity of selected molecules
readout_type: residual activity (%)

{"cpd_smiles": "CCc1nnc2cccc(Cl)n12", "value_observed": 85}
{"cpd_smiles": "CS(=O)(=O)NCc1ccc2c(c1)OCO2", "value_observed": 100}
{"cpd_smiles": "O=C(O)[C@@H]1CS[C@H](c2ccc(F)cc2)N1", "value_observed": 94}
{"cpd_smiles": "Cc1nnsc1Sc1ccccn1", "value_observed": 92}
{"cpd_smiles": "COC(=O)c1ccc(C(C)=O)cc1", "value_observed": 92}
{"cpd_smiles": "CNC(=O)c1ccc(C(F)(F)F)nc1", "value_observed": 96}
{"cpd_smiles": "COc1ccc(-c2c[nH]nc2N)cc1OC", "value_observed": 48}
{"cpd_smiles": "COc1cc(C(C)=O)ccc1N", "value_observed": 37}
{"cpd_smiles": "COC(=O)N1CCC(C(=O)O)CC1", "value_observed": 56}
{"cpd_smiles": "COC(=O)c1ccc2[nH]c(=O)oc2c1", "value_observed": 34}
{"cpd_smiles": "CCn1cnc2ccc(C(=O)OC)cc21", "value_observed": 79}
{"cpd_smiles": "O=c1[nH]c(=O)n([C@H]2C[C@H](O)[C@H](CO)O2)cc1F", "value_observed": 98}
{"cpd_smiles": "CC(=O)c1ccc(CC#N)s1", "value_observed": 56}
{"cpd_smiles": "Cn1ncc2c1CCCC2=O", "value_observed": 100}
{"cpd_smiles": "Cc1nc2ccc(NS(C)(=O)=O)cc2o1", "value_observed": 92}

* * *

biological target: Histone acetyltransferase p300 (Homo sapiens); assay: Binding affinity to EP300 (unknown origin) assessed as change in melting temperature at 1 mM by differential scanning fluorimetric method

{"cpd_smiles": "COc1cc(C(C)=O)ccc1N", "quantity_unit": "°C", "ΔTm": 2.6}
{"cpd_smiles": "CNC(=O)c1cc(Br)c[nH]1", "quantity_unit": "°C", "ΔTm": 7}
{"cpd_smiles": "COC(=O)c1ccc2[nH]c(=O)oc2c1", "quantity_unit": "°C", "ΔTm": 1.4}
{"cpd_smiles": "COc1ccc(-c2c[nH]nc2N)cc1OC", "quantity_unit": "°C", "ΔTm": -1.3}
{"cpd_smiles": "CC(=O)c1cn(C)c2ccccc12", "quantity_unit": "°C", "ΔTm": 2.6}

* * *

target: CREB-binding protein (Homo sapiens, UniProt Q92793); assay: Residual binding of human CBP expressed in Escherichia coli to histone H4 tetraacetylated peptide at 0.5 mM by Alphascreen assay relative to control
Listing: residual activity of selected compounds

{"cpd_smiles": "CC(=O)c1ccc(O)c2[nH]c(=O)ccc12", "experimental_system": "CREB-binding protein (Homo sapiens, UniProt Q92793)", "residual activity": "93%"}
{"cpd_smiles": "CC(=O)Nc1ccc(SCC#N)cc1", "experimental_system": "CREB-binding protein (Homo sapiens, UniProt Q92793)", "residual activity": "74%"}
{"cpd_smiles": "CC(=O)c1cn(C)c2ccccc12", "experimental_system": "CREB-binding protein (Homo sapiens, UniProt Q92793)", "residual activity": "31%"}
{"cpd_smiles": "Cc1nnc2ccc(N3CCOCC3)nn12", "experimental_system": "CREB-binding protein (Homo sapiens, UniProt Q92793)", "residual activity": "102%"}
{"cpd_smiles": "CNC(=O)c1cc(Br)c[nH]1", "experimental_system": "CREB-binding protein (Homo sapiens, UniProt Q92793)", "residual activity": "0.1%"}
